Every entry's value here was drawn from PubChem BioAssay AID1963842.

tested on: 677734-321-R-J1-PDC complex spheroid viability; test: Anticancer human tumor 677734-321-R-J1-PDC patient-derived soft tissue sarcoma cell line growth inhibition [POLQ]; details: second compound 10 µM; first compound 0.316 µM; stronger effect = lower value;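 note: spheroids exposed to compounds for one week; 100% = vehicle DMSO treated spheroids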
# label = yes (1) if viability, T/C < 90% else no (0)

INSERT INTO results (compound, tgt, assigned_class) VALUES
  ('C=CC(=O)N1CCN(c2nc(=O)n(-c3c(C)ccnc3C(C)C)c3nc(-c4c(O)cccc4F)c(F)cc23)C(C)C1 (stereo unspecified) + Nc1ccc(C#CCN(C(=O)Cc2ncc(C(F)(F)F)cc2C(F)(F)F)c2ccc(F)cc2)nn1', '677734-321-R-J1-PDC complex spheroid viability', 'no (0)'),
  ('CC(C)n1c(=O)n(C)c2cnc3cc(F)c(-c4ccc(OCCCN5CCCCC5)nc4)cc3c21 + COC1C(OC(N)=O)C(O)C(Oc2ccc3c(O)c(NC(=O)c4ccc(O)c(CC=C(C)C)c4)c(=O)oc3c2C)OC1(C)C', '677734-321-R-J1-PDC complex spheroid viability', 'no (0)'),
  ('CC1COCCN1c1cc(C2(O)CC3CCC(C2)O3)c2cnn(-c3ccn[nH]3)c2n1 (stereo unspecified) + Cc1cccc(N(C)C(=O)C2C(O)CCN2c2nc(C)cc(C(F)(F)F)c2C#N)c1', '677734-321-R-J1-PDC complex spheroid viability', 'yes (1)'),
  ('COc1ccc([C@@H](O)c2cc(-c3ncnc4cc(N5CCOCC5)ccc34)c(F)cc2Cl)nn1 + COC1C(OC(N)=O)C(O)C(Oc2ccc3c(O)c(NC(=O)c4ccc(O)c(CC=C(C)C)c4)c(=O)oc3c2C)OC1(C)C', '677734-321-R-J1-PDC complex spheroid viability', 'no (0)'),
  ('Nc1ccn(C2OC(CO)C(O)C2(F)F)c(=O)n1 (stereo unspecified) + COC1C(OC(N)=O)C(O)C(Oc2ccc3c(O)c(NC(=O)c4ccc(O)c(CC=C(C)C)c4)c(=O)oc3c2C)OC1(C)C', '677734-321-R-J1-PDC complex spheroid viability', 'yes (1)'),
  ('O=C(c1cc(Cc2n[nH]c(=O)c3ccccc23)ccc1F)N1CCN(C(=O)C2CC2)CC1 + Cc1cccc(N(C)C(=O)C2C(O)CCN2c2nc(C)cc(C(F)(F)F)c2C#N)c1', '677734-321-R-J1-PDC complex spheroid viability', 'no (0)'),
  ('Nc1ccn(C2OC(CO)C(O)C2(F)F)c(=O)n1 (stereo unspecified) + Cc1cccc(N(C)C(=O)C2C(O)CCN2c2nc(C)cc(C(F)(F)F)c2C#N)c1', '677734-321-R-J1-PDC complex spheroid viability', 'yes (1)'),
  ('COc1ccc([C@@H](O)c2cc(-c3ncnc4cc(N5CCOCC5)ccc34)c(F)cc2Cl)nn1 + Cc1cccc(N(C)C(=O)C2C(O)CCN2c2nc(C)cc(C(F)(F)F)c2C#N)c1', '677734-321-R-J1-PDC complex spheroid viability', 'no (0)'),
  ('COc1cccc(OCCCN)c1-c1cc(Nc2cnc(C#N)cn2)n[nH]1 + Nc1ccc(C#CCN(C(=O)Cc2ncc(C(F)(F)F)cc2C(F)(F)F)c2ccc(F)cc2)nn1', '677734-321-R-J1-PDC complex spheroid viability', 'yes (1)'),
  ('CC1COCCN1c1cc(C2(S(C)(=N)=O)CC2)nc(-c2ccnc3[nH]ccc23)n1 (stereo unspecified) + Nc1ccc(C#CCN(C(=O)Cc2ncc(C(F)(F)F)cc2C(F)(F)F)c2ccc(F)cc2)nn1', '677734-321-R-J1-PDC complex spheroid viability', 'yes (1)'),
  ('C=CCn1c(=O)c2cnc(Nc3ccc(N4CCN(C)CC4)cc3)nc2n1-c1cccc(C(C)(C)O)n1 + Nc1ccc(C#CCN(C(=O)Cc2ncc(C(F)(F)F)cc2C(F)(F)F)c2ccc(F)cc2)nn1', '677734-321-R-J1-PDC complex spheroid viability', 'yes (1)');
